subject-of-test: T1, SHF SH2 domain (human, UniProt Q7M4L6 323-418)
T1 construct: SHF, human; source: bacterial expression, purified
T1 sequence (looked up): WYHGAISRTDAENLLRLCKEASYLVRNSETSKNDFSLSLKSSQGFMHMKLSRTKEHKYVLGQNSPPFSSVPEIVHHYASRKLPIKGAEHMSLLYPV
assay-name: peptide or protein array; SH2/PTB proteins spotted on aldehyde slides, rhodamine peptide titrated in buffer B (20 mM HEPES, 100 mM KCl, 0.1% Tween-20, 5 mM DTT, pH 7.8), 1 h at room temperature; replicate assays
experimental-conditions: both partners purified
Non-standard residues stand in square brackets, D forms with d. No end group written: not given here. pY = N[C@@H](Cc1ccc(OP(=O)(O)O)cc1)C(=O)O; Rhodamine = not defined here
recorded-metric: pKd
To interpret pKd, take it as minus log10 of a concentration measured in moles per litre.

Exercise: Recorded pKd of Rhodamine-PLQR[pY]SEDPTVPD (reading uncertain) [ErbB2 pY1112 phosphopeptide, rhodamine-labelled, for protein microarrays] , please.
Key: 5.53
